# procedure-details: Plasma clearance in rat at 3 mg/kg, iv
# Format: ADME, organism-based
# Design: dose 3 mg/kg, route intravenous
measure-name: clearance (L/h/kg)
Answers are plain numbers, in L/h/kg.

COc1cccc(-c2c(C)n(Cc3c(F)cccc3C(F)(F)F)c(=O)n(C[C@H](NCCCC(=O)[O-])c3ccccc3)c2=O)c1F.[Na+] [ELAGOLIX SODIUM]	2

Please turn your attention to the following entry.
What does the data say about its clearance? Entry: COc1cccc(-c2c(C)n(Cc3c(F)cccc3C(F)(F)F)c(=O)n(C[C@@H](c3ccccc3)N(C)CCCC(=O)O)c2=O)c1F
1.58

* * *

# procedure-details: Tmax in Beagle dog at 50 mg/kg, po
# Type: ADME, organism-based, Canis lupus familiaris
# Parameters: dose 50 mg/kg, route oral
# experimental-conditions: in vivo
measure-name: Tmax (h)
Numbers only, in h.

Using the record for COc1cccc(-c2c(C)n(Cc3c(F)cccc3C(F)(F)F)c(=O)n(C[C@H](NCCCC(=O)[O-])c3ccccc3)c2=O)c1F.[Na+] [ELAGOLIX SODIUM] , report its Tmax.
2
